- Tested on: MDA-MB-435 melanoma
- procedure-text: NCI-60 one-dose screen, 48 h (100 = growth as untreated, 0 = no growth, -100 = all killed)
- condition-description: 10 µM unless noted
This is part of a sample that, as a whole, favours compounds with a hit. Of some 83,000 tested, about 20% had one in any assay.
metric: growth (%)
Reply numerically in %, unit not repeated.

Log: MDA-MB-435 melanoma, compound "CN(C)c1ccc(/C=N\NC(=O)c2ccc3nc(-c4ccc(Cl)cc4)[nH]c3c2)cc1" , growth = 93.9

Log: MDA-MB-435 melanoma, compound CN1C(=O)N2CN3CCCN(C3)CN3C(=S)NC1C23 (stereo unspecified) , growth = 106

Log: MDA-MB-435 melanoma, compound "COc1ccc2cc(-c3nc4ccc(C)cn4c3NCc3ccco3)c(=O)[nH]c2c1" , growth = 86.8

Log: MDA-MB-435 melanoma, compound "COc1ccc(-c2cc(-c3cccnc3)nc3sc4c(N)c(C(C)=O)c(-c5ccccc5)nc4c23)cc1OC" , growth = 45.7

Log: MDA-MB-435 melanoma, compound "CCOC(=O)c1nnn(Cc2cc(=O)oc3ccc(O)cc23)c1C" , growth = 104

Log: MDA-MB-435 melanoma, compound "C=C(C)[C@@H]1CC[C@]2(C(=O)N3CCNCC3)CC[C@]3(C)[C@H](CC[C@@H]4[C@@](C)(CCC(=O)N5CCNCC5)[C@H](C(=C)C)CC[C@]43C)[C@@H]12" , growth = 74

* * *

- Tested on: SW-620 colon
- procedure-text: NCI-60 one-dose screen, 48 h
- condition-description: 10 µM unless noted
Compounds without any hit were thinned out: in the full panel of roughly 83,000, 20% have a hit. Calls of active or inactive are those of the source. Rule for the calls: active = growth percent below 10; inactive = the rest.
Assign a class; possible classes are 1 for active, -1 for inactive

query: Returns: the outcome recorded for "N#Cc1ccccc1-c1ccc(CN2C(=O)S/C(=C\c3ccc(Br)cc3)C2=O)cc1" in this assay.
result: -1

query: Returns: the outcome recorded for O=C1C=CC2(O)OC/C(=C\c3ccccc3)C(O)=C2C1=O (centres undefined) in this assay.
result: 1

query: Returns: the outcome recorded for "CN(C)Cc1cc(C(C)(C)C)cc(Br)c1O" in this assay.
result: -1

query: Returns: the outcome recorded for "O=C1c2cccnc2C(=O)c2c1c(C(=O)OCCc1ccccn1)c1ccccn21" in this assay.
result: 1

query: Returns: the outcome recorded for C#Cc1cccc(NC(=O)C2CCCCN2C(=O)CCl)c1 (centres undefined) in this assay.
result: 1

query: Returns: the outcome recorded for "COc1ccc(C(=O)Nc2ncc(Cc3ccc(Cl)cc3)s2)cc1" in this assay.
result: -1

query: Returns: the outcome recorded for "O=C(c1c[nH]c2ccccc12)c1n[nH]c(=S)n1-c1ccc([N+](=O)[O-])cc1" in this assay.
result: -1

query: Returns: the outcome recorded for "CC1=C(Cl)C(=O)c2cc(C)ccc2C1=O" in this assay.
result: -1

query: Returns: the outcome recorded for "O=C(Nc1ncc(Cc2ccccc2)s1)c1sc2ccccc2c1Cl" in this assay.
result: -1

* * *

Would you mind telling me the reported growth of each entry?
- Tested on: SR leukemia
- procedure-text: NCI-60 one-dose screen, 48 h (100 = growth as untreated, 0 = no growth, -100 = all killed)
- condition-description: 10 µM unless noted
- Method: Growth inhibition of the SR human tumor cell line is measured as a screen for anti-cancer activity. Cells are grown in 96 well plates and exposed to the test compound for 48 hours. Compounds are tested at a single concentration, which is 10^-5 M for most compounds. The reported endpoint is percent growth (GI% or GIPRCNT), where numbers from 0 - 100% represent growth inhibition, and numbers from -100% - 0 represent cell death. For example, a value of 40 represents 60% growth inhibition. […]
This is part of a sample that, as a whole, favours compounds with a hit. Of some 83,000 tested, about 20% had one in any assay. Activity calls are given as the source filed them. Rule for the calls: active = growth percent below 10; inactive = the rest.

compound "O=c1cc(C(F)(F)F)c2cc(-c3cc4ccccc4c(=O)o3)c(O)cc2o1" , growth observed: 85.5% (inactive)

compound "CC(=O)c1c(Nc2cccc(F)c2)[nH]c2c(Cl)cc(Cl)c(Cl)c2c1=O" , growth observed: 14.8% (inactive)

compound "CCN(CC)CCOc1ccc2ccc(=O)oc2c1" , growth observed: -3.51% (active)

compound "N#Cc1c(-c2ccccc2)nc2c(c(-c3ccc(Cl)cc3)nn2-c2ccccc2)c1-c1ccc([N+](=O)[O-])cc1" , growth observed: 63.4% (inactive)

compound "O=C(/C=C/c1ccccc1)c1cccc2ccccc12" , growth observed: 8.29% (active)

compound "CN(C)c1ccc(CNCCO)cc1" , growth observed: 108% (inactive)

compound "O=S(=O)(Nc1cc(F)cc(F)c1)c1ccc(-c2cnc(C3CC3)o2)cc1" , growth observed: 16.2% (inactive)

compound "Cn1cc(-c2nonc2-c2c[nH]c3ccccc23)c2cc(Br)ccc21" , growth observed: 15.3% (inactive)

compound "CC1=C(Cl)C(=O)c2cc(C)ccc2C1=O" , growth observed: 89.3% (inactive)

compound O=C(CN1C(=O)S/C(=C\C(Cl)=C\c2ccccc2)C1=O)NC1CCS(=O)(=O)C1 (configuration not stated) , growth observed: 14.2% (inactive)

compound "COc1ccc(/C=N/Nc2c3ccccc3nc3ccccc23)cc1" , growth observed: 95.6% (inactive)

compound "C=C1C(=O)O[C@H]2[C@H]1CC/C(COC(=O)NCc1ccc(Cn3c(=O)sn(-c4ccccc4)c3=O)cc1)=C\CC[C@@]1(C)O[C@@H]21" , growth observed: -4.67% (active)

* * *

- System: SK-MEL-28 melanoma
- procedure-text: NCI-60 one-dose screen, 48 h (100 = growth as untreated, 0 = no growth, -100 = all killed)
- condition-description: 10 µM unless noted
The panel holds about 83,000 compounds, 20% with a hit somewhere; the sample as a whole holds those more often.
metric: growth (%)
Reply numerically in %, unit not repeated.

molecule "C=C(C)[C@@H]1CC[C@]2(C(=O)N3CCNCC3)CC[C@]3(C)[C@H](CC[C@@H]4[C@@](C)(CCC(=O)N5CCNCC5)[C@H](C(=C)C)CC[C@]43C)[C@@H]12" , growth observed: 96.7

molecule "CC1(C)N=C(N)N=C(N)N1c1cc(Cl)ccc1Cl" , growth observed: 106

molecule "O=[N+]([O-])c1c(O)c(Cl)cc(Cl)c1Cl" , growth observed: 109

molecule "N=C(N)c1ccc(OCCSCCOc2ccc(C(=N)N)cc2)cc1" , growth observed: 92.2

molecule "Cc1ccc(S(=O)(=O)OC[C@]23CCC(C)(C)C[C@H]2C2=CC[C@@H]4[C@@]5(C)CCCNC(C)(C)[C@@H]5CC[C@@]4(C)[C@]2(C)CC3)cc1" , growth observed: 99.8

molecule "O=C(OCc1ccc2c(Cl)cc(Cl)c(O)c2n1)N1CCN(C(=O)c2cc3ccccc3[nH]2)CC1" , growth observed: 39.2

molecule "C/C(=N\Nc1ccccc1)c1ccc(NC2=CC(=O)c3ccccc3C2=O)cc1" , growth observed: 65.9

molecule "CC(=O)c1c(Nc2cccc(F)c2)[nH]c2c(Cl)cc(Cl)c(Cl)c2c1=O" , growth observed: 5.27

molecule "COC(=O)c1c2c(c(C)[n+]([O-])c1C)C(=O)C(NCc1ccccc1)=CC2=O" , growth observed: 61.3

molecule "COc1ccc(-c2cc(-c3cccnc3)nc3sc4c(N)c(C(C)=O)c(-c5ccccc5)nc4c23)cc1OC" , growth observed: 70

molecule "Oc1c(CN2CCC(N3CCOCC3)CC2)cc(Cc2cc(CN3CCC(N4CCOCC4)CC3)c(O)c3ncccc23)c2cccnc12" , growth observed: 45

molecule "Nc1ncccc1O" , growth observed: 106

molecule "O=C(CCCCCCCC(=O)N1CCCCC1)N1CCCCC1" , growth observed: 102

molecule "COc1cc2ncnc(Nc3ccc(S(=O)(=O)Nc4nccs4)cc3)c2cc1OCCCN1CCCC1" , growth observed: 109

molecule "O=c1c2ccccc2n(C[C@H]2CO2)c2ccccc12" , growth observed: 2.83

molecule "COc1ccc(C(=O)/C=C/c2ccccc2)cc1S(N)(=O)=O" , growth observed: 107

molecule "O=c1cc(-c2ccccc2)nc(SCc2nc3cc(Cl)c(Cl)cc3[nH]2)[nH]1" , growth observed: 111

molecule "c1ccc(Nc2nc3c(s2)CCc2c[nH]cc2-3)nc1" , growth observed: 110

molecule "Cc1c2cnccc2c(C)c2c1c1cc(CO)ccc1n2C" , growth observed: -69.5

molecule "C(=C(\C1=NCCN1)n1ccc2ccccc21)/c1ccccc1" , growth observed: 106

molecule "COc1cc(OC)c2c(=O)c3c(CC=C(C)C)cc(OC)c(O)c3oc2c1" , growth observed: 88.4

molecule "Fc1cccc(CNc2c3ccccc3nc3ccccc23)c1" , growth observed: 78.5

molecule "Cc1cc2oc(/C=C/c3ccccc3)cc(=O)c2c(C)c1Cl" , growth observed: 94.6

molecule "O=C(Nc1cccnc1Nc1ccccc1)c1cn(Cc2cccc(Oc3ccccc3)c2)nn1" , growth observed: 55.1

molecule "COc1ccc(Oc2ccc(/C=C/C(=O)c3ccc(OC)c(OC)c3)cc2)cc1" , growth observed: 93.7

molecule "CCN1C2CCC1/C(=C\c1ccccc1)C(=O)/C2=C/c1ccccc1" , growth observed: 77.1

molecule Nc1cccc(-c2ccc(COc3ccc(CC4SC(=O)NC4=O)cc3)cc2)c1 (configuration not stated) , growth observed: 55.9

Provenance of the data: PubChem BioAssay (NCI)
